Measured recombinant UMI read abundance (log10) values are reported for all entries that follow.
test: recombinant UMI read abundance after kanamycin selection (control-corrected) (log10(CPM+1)); higher = more efficient recombination; extreme values may be limits of the assay; sequences stand for … in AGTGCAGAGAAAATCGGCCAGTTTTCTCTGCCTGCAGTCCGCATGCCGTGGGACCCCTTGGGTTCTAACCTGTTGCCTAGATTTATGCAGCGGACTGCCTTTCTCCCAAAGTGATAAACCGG…AGGTTGGTTTCACT; site = the 11-nt donor;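 also: IS621 bridge recombinase in Escherichia coli cells against a fixed T5 target plasmid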
Keep it simple and answer with nothing but the number.

// solved cases for recombinant UMI read abundance (log10) follow
{"columns": ["sequence.entry", "measurement"],
 "data": [
  ["GGAATGGCATGGACCGGTTTTCCCGGTAATCCGTATTTGGT (site GGATTGGCTAC)", 0.00922],
  ["CTCGGCCCATGGACCGGTTTTCCCGGTAATCCGTATTTGTT (site CGCGGCCCTAA)", 0.0316]
]}

Quickly give me recorded recombinant UMI read abundance (log10) for CGCGCGCCATGGACCGGTTTTCCCGGTAATCCGTATTTGAG (site CGCGCGCCTCT)
0.0359

Quickly give me recorded recombinant UMI read abundance (log10) for AGTAGGACATGGACCGGTTTTCCCGGTAATCCGTATTTGCA (site AGGAAGACTTG)
1.45

Quickly give me recorded recombinant UMI read abundance (log10) for CTCTACGCATGGACCGGTTTTCCCGGTAATCCGTATTTGCT (site CTCTACACTAG)
0.475

Quickly give me recorded recombinant UMI read abundance (log10) for TCCAACTCATGGACCGGTTTTCCCGGTAATCCGTATTTGCC (site TCCAACTCTGG)
0

Quickly give me recorded recombinant UMI read abundance (log10) for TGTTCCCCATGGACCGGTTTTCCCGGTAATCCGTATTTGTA (site TGTTACCCTTA)
0.177

Quickly give me recorded recombinant UMI read abundance (log10) for CAAGTGACATGGACCGGTTTTCCCGGTAATCCGTATTTGGG (site CAAGTGACTCC)
0.246

Quickly give me recorded recombinant UMI read abundance (log10) for CATTTATCATGGACCGGTTTTCCCGGTAATCCGTATTTGGC (site CATTTATCTGC)
1.72
